Hello, the source for this data is patent US4232121A, in case you need it.

conditions: not told
outcome-measure: ER

>>> measured("CCN1C(=CC=Cc2oc3cc(S(=O)(=O)[O-])ccc3[n+]2CC)Oc2cc(S(=O)(=O)O)ccc21 [7,6,6'-disulfo]")
-1.26
>>> measured("CCC(=Cc1sc2ccc(Cl)cc2[n+]1CC)C=C1Sc2ccc(Cl)cc2N1CC [Dye 15]")
-1.06
>>> measured("CCN1C(=CC=Cc2oc3cc(Cl)ccc3[n+]2CC)Oc2cc(Cl)ccc21 [7,6,6'-dichloro]")
-1.17
>>> measured("CCN1C(=Cc2sc3ccc4ccccc4c3[n+]2CC)Sc2ccc3ccccc3c21 [Dye 2]")
-1.60
>>> measured("CCN1C(=CC=Cc2oc3cc(Cl)ccc3[n+]2CC)Oc2cc(Cl)ccc21 [Dye 9]")
-1.18
>>> measured("CCN1C(=Cc2sc3ccccc3[n+]2C)C=Cc2ccccc21 [Dye 14]")
-1.08
